B1: TRIM43 (parent)
chain: NRFRVEISFHFEVTNHNIRLFEDV

Variants of: B1
testMethodNotes: protein stability index of a GFP-peptide fusion (GPS, HEK-293T) (PSI 1-6); higher = more stable;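 note: lentivirally expressed fusions sorted by FACS into six bins by GFP to DsRed ratio, PSI derived from sequencing read proportions per bin multiplied by bin number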
testContext: c terminus: a fixed tail appended
Classification field. Basis: protein stability index. Definitions: class 0: < 2; class 1: ≥ 2 and < 3; class 2: ≥ 3

Solved cases (2 shown):
| sequenceCode | className |
| --- | --- |
| NRFRVERSFHFEVTNHNIRLFEDV | class 1 |
| NRFRVEISFHFEVTNYNIRLFEDV | class 1 |

Which category fits this record: NRFRVTISFHFEVTNHNIRLFEDV
class 2

The entry to classify is NRFRVDISFHFEVTNHNIRLFEDV ; which class holds it?
class 1

Which class holds NRFRVEISQHFEVTNHNIRLFEDV ?
class 0

Sort into band: NRFRVEISFHFEVTNHFIRLFEDV
class 1

Kindly identify the class of NRFRVEIPFHFEVTNHNIRLFEDV .
class 1

Which category does the recorded protein stability index put NRFRVEISFHFEVTNANIRLFEDV in?
class 2

Bin? NRFRVEISFHFEVTNHNIRLFHDV
class 2

Category of NRFRVEISFHFAVTNHNIRLFEDV :
class 1

For this variant, which bin applies? NRFRVEISFHFEVTNHNYRLFEDV
class 2

GET /class?item= NRFRVEISFHFEVTMHNIRLFEDV
class 1

For the record NRFRVEIMFHFEVTNHNIRLFEDV , report the class its protein stability index corresponds to.
class 1

Field: class (protein stability index) — entry: CRFRVEISFHFEVTNHNIRLFEDV
class 2
